Value source: patent US11739101B2

# subjectOfTest: HPK1 (Homo sapiens)
# Construct: A HiBiT tag was introduced by CRISPR on the N terminus of HPK1 in Jurkat cells; host or cells: Jurkat (ATCC TIB-152), monoclonal CRISPR HiBiT knock-in line
# Sequence (Q92918 whole entry): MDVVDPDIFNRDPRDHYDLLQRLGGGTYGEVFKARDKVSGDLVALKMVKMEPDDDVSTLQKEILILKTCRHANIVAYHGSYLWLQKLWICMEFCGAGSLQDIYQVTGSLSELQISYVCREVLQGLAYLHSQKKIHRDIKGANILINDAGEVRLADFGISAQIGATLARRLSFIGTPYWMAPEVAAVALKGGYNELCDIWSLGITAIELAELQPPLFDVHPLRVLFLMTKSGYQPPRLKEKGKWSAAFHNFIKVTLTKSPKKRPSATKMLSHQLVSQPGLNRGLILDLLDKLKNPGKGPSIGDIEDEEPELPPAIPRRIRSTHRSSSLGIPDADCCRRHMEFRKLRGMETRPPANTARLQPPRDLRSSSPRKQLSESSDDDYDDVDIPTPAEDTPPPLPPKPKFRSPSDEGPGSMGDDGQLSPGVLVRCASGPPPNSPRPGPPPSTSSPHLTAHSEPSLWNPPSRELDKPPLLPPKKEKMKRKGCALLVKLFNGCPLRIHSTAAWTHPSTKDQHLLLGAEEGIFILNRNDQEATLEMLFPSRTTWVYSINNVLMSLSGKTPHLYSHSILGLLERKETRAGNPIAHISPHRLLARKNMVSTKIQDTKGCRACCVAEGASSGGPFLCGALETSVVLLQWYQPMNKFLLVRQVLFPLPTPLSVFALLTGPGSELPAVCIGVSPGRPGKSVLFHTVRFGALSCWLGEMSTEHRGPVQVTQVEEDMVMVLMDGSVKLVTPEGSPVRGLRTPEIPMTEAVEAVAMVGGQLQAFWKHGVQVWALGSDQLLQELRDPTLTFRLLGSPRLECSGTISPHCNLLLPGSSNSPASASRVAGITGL
# procedureDetails: HPK1 Cellular HiBiT Degradation Assay
# Assay type: cell-based
# statedConditions: HiBiT-tagged HPK1 Jurkat cells, 24 hours, 10 uM to 0.1 nM; Dmax = 100 minus lowest % HPK1 remaining vs DMSO vehicle
The following compounds are listed with their measured Dmax values.

compound	Dmax
Cc1cc(F)c(Nc2nc(-c3ccc4c(c3)N([C@H]3C[C@@H](N5CCCCC5)C3)C(=O)C43CCN(C(=O)c4ccc(C5CCN(CC(=O)NCCNc6cccc7c6C(=O)N(C6CCC(=O)NC6=O)C7=O)CC5)cc4)CC3)cc3ncn(C(C)C)c23)cc1C(=O)NC(C)C (stereo partly shown) [Example 88]	> 65%

# return Dmax for Cc1cc(F)c(Nc2nc(-c3ccc4c(c3)N([C@H]3C[C@@H](N5CCCCC5)C3)C(=O)C43CCN(C(=O)C4CCN(CC5CCN(c6cccc7c6C(=O)N(C6CCC(=O)NC6=O)C7=O)CC5)C4)CC3)cc3ncn(C(C)C)c23)cc1C(=O)NC(C)C (stereo partly shown) [Example 38] , test system: HPK1 (Homo sapiens)
> 65%

# return Dmax for Cc1cc(F)c(Nc2nc(-c3ccc4c(c3)N([C@H]3C[C@@H](N5CCCCC5)C3)C(=O)C43CCN(C(=O)c4ccc(CN5CCN(c6ccc7c(c6)C(=O)N(C6CCC(=O)NC6=O)C7=O)CC5)cc4)CC3)cc3ncn(C(C)C)c23)cc1C(=O)NC(C)C (stereo partly shown) [Example 91] , test system: HPK1 (Homo sapiens)
45 to 65%

# return Dmax for Cc1cc(F)c(Nc2nc(-c3ccc4c(c3)N([C@H]3C[C@@H](N5CCCCC5)C3)C(=O)C43CCN(C(=O)CN4CCC(c5ccc(C(=O)NCCNc6cccc7c6C(=O)N(C6CCC(=O)NC6=O)C7=O)cc5)CC4)CC3)cc3ncn(C(C)C)c23)cc1C(=O)NC(C)C (stereo partly shown) [Example 90] , test system: HPK1 (Homo sapiens)
45 to 65%
